The measurements presented in this section are drawn from patent US7514534.

study.system: T1, MMP-26 (human)
T1 sequence: ASDF
experiment.summary: cell-based or functional assay
measurement.type: % Inhibition of JEG-3 cell invasion, 50 µg/ml (further test) (%)
Answer with a number only, understood to be in %.

A01 (antibody, human IgG4, V domains shown) VH: EVQLLESGGGLVQPGGSLRLSCAASGFTFSAYNMFWVRQAPGKGLEWVSGIGSSGGIAPYADSVKGRFTISRDNSKNTLYLQMNSLRAEDTAVYYCARAAYEVENWFDPWGQGTLVTVSS VL: DIQMTQSPGTLSLSPGERATLSCRASQIVRSTYLAWYQQKPGQAPRLLIYGTSSRATGVPDRFSGSGSGTDFTLTISGLEPEDFALYYCQRYGDSPPITFGQGTRLEITR
70

Below: the item to evaluate.
IN: Give a short answer stating reported % Inhibition of JEG-3 cell invasion, 50 µg/ml (further test) for C01 (antibody, human IgG4, V domains shown) VH: EVQLLESGGGLVQPGGSLRLSCAASGFTFSNYGMSWVRQAPGKGLEWVSVIGPSGGITMYADSVKGRFTISRDNSKNTLYLQMNSLRAEDTAVYYCATGSSSGWYPNFDYWGQGTLVTVSS VL: DIQMTQSPSTLSASVGDRVTITCRASQSIGNWLAWYQQKPGEAPHLLIYQASSLEGGVPSRFSGSGSGTKFTLNISSLQPDDFATYYCQQYNSYSYTFGQGTKLDIKR .
OUT: 42
